target: UniProt P23975; experiment: Scintillation Proximity Assay (SPA) for human NET binding ([3H]nisoxetine); settings: recombinant human NET, CHO membranes
measuredProperty: pIC50 NET

Problem: Consider the compound NCC1(O)CCN(c2nc(Oc3cccc(F)c3)cc(C(F)(F)F)n2)CC1 [Example 11] and give its measured pIC50 NET.
Result: 6.46

Others:
Problem: Report pIC50 NET for O=C(NCC1(O)CCN(c2nc(Oc3cccc(F)c3)cc(C(F)(F)F)n2)CC1)C1CNC1 [Example 25] please.
Result: 5.70

Problem: OC1(CNC2CC2)CCN(c2nc(Oc3cccc(F)c3)cc(C(F)(F)F)n2)C1 (centres unmarked) [Example 30] , same question.
Result: 6.78

Problem: Also NCC1(O)CCN(c2cc(F)cc(Oc3cccc(F)c3)c2F)CC1 [Example 15] , if possible.
Result: 7.24

Problem: Now this one: CC1CCC(C)N1CC1(O)CCN(c2nc(Oc3cccc(F)c3)cc(C(F)(F)F)n2)CC1 (centres unmarked) [Example 8]
Result: 6.29

Problem: Next: CNCC1(O)CCN(c2nc(Oc3cccc(F)c3)cc(C(F)(F)F)n2)CC1 [Example 5]
Result: 6.61

Problem: What do we get for NCC1(O)CCN(c2cccc(Oc3cccc(F)c3)c2F)CC1 [Example 17] ?
Result: 6.49

Problem: // query: NCC(=O)NCC1(O)CCN(c2nc(Oc3cccc(F)c3)cc(C(F)(F)F)n2)CC1 [Example 29]
Result: 5.77

----------
target: human serotonin transporter (SERT) (Homo sapiens (Human), UniProt P31645); experiment: Scintillation Proximity Assay (SPA) for human SERT binding ([3H]citalopram); details: recombinant human SERT, CHO membranes
Sequence (P31645 whole entry): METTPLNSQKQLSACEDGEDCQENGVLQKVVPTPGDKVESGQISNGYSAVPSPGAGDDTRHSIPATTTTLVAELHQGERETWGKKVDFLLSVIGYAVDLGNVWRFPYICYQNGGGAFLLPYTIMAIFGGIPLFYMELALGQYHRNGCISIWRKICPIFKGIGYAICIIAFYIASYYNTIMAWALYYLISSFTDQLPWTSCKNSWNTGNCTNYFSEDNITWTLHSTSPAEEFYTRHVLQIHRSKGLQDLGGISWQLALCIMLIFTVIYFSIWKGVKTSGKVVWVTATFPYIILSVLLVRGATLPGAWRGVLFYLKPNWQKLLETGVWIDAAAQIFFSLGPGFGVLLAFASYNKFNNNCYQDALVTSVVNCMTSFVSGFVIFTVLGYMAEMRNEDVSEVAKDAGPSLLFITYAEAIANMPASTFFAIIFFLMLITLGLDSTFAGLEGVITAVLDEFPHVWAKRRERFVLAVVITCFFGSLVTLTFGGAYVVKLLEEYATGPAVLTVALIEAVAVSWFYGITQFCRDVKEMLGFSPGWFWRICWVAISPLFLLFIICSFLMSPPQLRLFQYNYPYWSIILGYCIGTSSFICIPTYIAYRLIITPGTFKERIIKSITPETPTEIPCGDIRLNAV
pIC50: −log10 of the molar value.
Output yes for pIC50 not less than 5; output no otherwise.

Use these answered entries as a reference point.
Problem: Does NCC1(O)CCN(c2cc(F)cc(Oc3cccc(F)c3)c2)CC1 [Example 14] have a reported pIC50 of at least 5?
Result: yes

Problem: What do you have for CN(CC1(O)CCN(c2nc(Oc3cccc(F)c3)cc(C(F)(F)F)n2)CC1)C1CC1 [Example 4] ?
Result: no

Problem: Record: NCC1(O)CCN(c2nc(Oc3cccc(F)c3)cc(C(F)(F)F)n2)C1 (centres unmarked) [Example 33]
Result: no

Problem: Next molecule: CC1CCC(C)N1CC1(O)CCN(c2nc(Oc3cccc(F)c3)cc(C(F)(F)F)n2)CC1 (centres unmarked) [Example 8]
Result: yes

Problem: Lookup OC1(CN2CCCC2)CCN(c2nc(Oc3cccc(F)c3)cc(C(F)(F)F)n2)CC1 [Example 2]
Result: no

Continuing:
Problem: Hello, I need to know if OC1(CN2CCC(F)(F)C2)CCN(c2nc(Oc3cccc(F)c3)cc(C(F)(F)F)n2)CC1 [Example 6] has measured pIC50 not below 5. Thanks!
Result: no

Problem: Same thing, different molecule: O=C(NCC1(O)CCN(c2nc(Oc3cccc(F)c3)cc(C(F)(F)F)n2)C1)C1CNC1 (centres unmarked) [Example 35]
Result: no

Problem: OC1(CNC2CC2)CCN(c2nc(Oc3cccc(F)c3)cc(C(F)(F)F)n2)C1 (centres unmarked) [Example 30] , same question.
Result: no

Problem: Now this one: OC1(CNC2CC2)CCN(c2nc(Oc3cccc(F)c3)cc(C(F)(F)F)n2)CC1 [Example 3]
Result: no

Problem: Param item: NCC1(O)CCN(c2cc(F)c(F)c(Oc3cccc(F)c3)c2)CC1 [Example 19]
Result: yes

Problem: Try CNCC1(O)CCN(c2nc(Oc3cccc(F)c3)cc(C(F)(F)F)n2)CC1 [Example 5] next.
Result: no

Problem: Try NCC(=O)NCC1(O)CCN(c2nc(Oc3cccc(F)c3)cc(C(F)(F)F)n2)CC1 [Example 29] next.
Result: no

Problem: Please give the result for CC(C)C(=O)NCC1(O)CCN(c2nc(Oc3cccc(F)c3)cc(C(F)(F)F)n2)CC1 [Example 21] too.
Result: no

Problem: And for NC1(CO)CCN(c2nc(Oc3cccc(F)c3)cc(C(F)(F)F)n2)CC1 [Example 20] ?
Result: yes

Problem: Please give the result for Fc1cccc(Oc2cc(C(F)(F)F)nc(N3CCc4nc[nH]c4C3)n2)c1 [Example 36] too.
Result: no

Problem: Repeat for the following molecule: CC(C)OCC(=O)NCC1(O)CCN(c2nc(Oc3cccc(F)c3)cc(C(F)(F)F)n2)CC1 [Example 23]
Result: no

Problem: Now give it for O=C(NCC1(O)CCN(c2nc(Oc3cccc(F)c3)cc(C(F)(F)F)n2)CC1)c1cnccn1 [Example 28] too.
Result: no

Problem: Next molecule up: NCC1(O)CCN(c2cccc(Oc3ccccc3)c2F)CC1 [Example 16]
Result: yes

Problem: Can you check CC(=O)NCC1(O)CCN(c2nc(Oc3cccc(F)c3)cc(C(F)(F)F)n2)CC1 [Example 24] next?
Result: no

Problem: Can you check O=C(NCC1(O)CCN(c2nc(Oc3cccc(F)c3)cc(C(F)(F)F)n2)CC1)c1ccccc1 [Example 26] next?
Result: no

Problem: Field entry: O=C1CCCN1CC1(O)CCN(c2nc(Oc3cccc(F)c3)cc(C(F)(F)F)n2)CC1 [Example 10]
Result: no

Problem: Please do the same for CC(C)C(=O)NCC1(O)CCN(c2nc(Oc3cccc(F)c3)cc(C(F)(F)F)n2)C1 (centres unmarked) [Example 34] as well.
Result: no

Problem: Same read-out for NCC1(O)CCN(c2cccc(Oc3cccc(F)c3)c2F)CC1 [Example 17] ?
Result: yes

Problem: Same question, Cl.OC1(CN2CCCNCC2)CCN(c2nc(Oc3cccc(F)c3)cc(C(F)(F)F)n2)CC1 [Example 7, hydrochloride] this time
Result: yes

Problem: What do you have for O=C(CC1CC1)NCC1(O)CCN(c2nc(Oc3cccc(F)c3)cc(C(F)(F)F)n2)CC1 [Example 22] ?
Result: no

Problem: Can you handle O=C(NCC1(O)CCN(c2nc(Oc3cccc(F)c3)cc(C(F)(F)F)n2)CC1)c1cn[nH]c1 [Example 27] next?
Result: no

Problem: Try this molecule next: Cl.Fc1cccc(Oc2cc(C(F)(F)F)nc(N3CCC4NCCCC4C3)n2)c1 (centres unmarked) [Example 39, hydrochloride]
Result: yes

Problem: Now consider NCC1(O)CCN(c2cc(Oc3cccc(F)c3)cc(F)c2F)CC1 [Example 18] and answer again.
Result: yes

Problem: Same question for O=C(NCC1(O)CCN(c2nc(Oc3cccc(F)c3)cc(C(F)(F)F)n2)CC1)C1CNC1 [Example 25] please.
Result: no

Problem: Also, NCC1(O)CCN(c2cc(F)cc(Oc3cccc(F)c3)c2F)CC1 [Example 15] please.
Result: yes

----------
biological target: human norepinephrine transporter (NET) (Homo sapiens (Human)); assay: Scintillation Proximity Assay (SPA) for human NET binding ([3H]nisoxetine); settings: recombinant human NET, CHO membranes
measuredProperty: IC50

Problem: Value lookup for IC50; key = O=C(NCC1(O)CCN(c2nc(Oc3cccc(F)c3)cc(C(F)(F)F)n2)CC1)c1ccccc1 [Example 26]
Result: > 100 µM

----------
molecular target: human norepinephrine transporter (NET) (Homo sapiens (Human), UniProt P23975); assay: Scintillation Proximity Assay (SPA) for human NET binding ([3H]nisoxetine); details: recombinant human NET, CHO membranes
Sequence (P23975 whole entry): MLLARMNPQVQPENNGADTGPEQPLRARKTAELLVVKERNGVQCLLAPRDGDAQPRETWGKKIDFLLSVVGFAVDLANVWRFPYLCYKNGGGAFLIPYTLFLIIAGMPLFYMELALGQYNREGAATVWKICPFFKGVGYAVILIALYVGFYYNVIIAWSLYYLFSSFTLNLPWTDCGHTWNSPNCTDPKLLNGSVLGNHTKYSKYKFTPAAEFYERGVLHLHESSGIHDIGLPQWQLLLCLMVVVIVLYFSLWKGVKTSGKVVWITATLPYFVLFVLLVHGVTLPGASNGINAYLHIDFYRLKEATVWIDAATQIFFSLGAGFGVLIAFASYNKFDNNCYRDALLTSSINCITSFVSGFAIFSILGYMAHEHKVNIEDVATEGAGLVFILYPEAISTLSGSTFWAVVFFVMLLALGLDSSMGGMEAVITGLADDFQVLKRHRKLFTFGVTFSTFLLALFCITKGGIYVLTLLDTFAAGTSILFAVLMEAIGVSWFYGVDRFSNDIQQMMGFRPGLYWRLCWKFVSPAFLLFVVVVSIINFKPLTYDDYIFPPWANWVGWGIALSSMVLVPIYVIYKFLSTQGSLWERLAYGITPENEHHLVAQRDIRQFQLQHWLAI
measuredProperty: pIC50 NET
// return just the number, without any unit appended

Known results for compounds:
Problem: Data request, read-out pIC50 NET, for Cl.Fc1cccc(Oc2cc(C(F)(F)F)nc(N3CCC4NCCCC4C3)n2)c1 (stereo not drawn) [Example 39]
Result: 7.51

Problem: Similarly, NC1(CO)CCN(c2nc(Oc3cccc(F)c3)cc(C(F)(F)F)n2)CC1 [Example 20] ?
Result: 6.50

Problem: Try this compound next: Fc1cccc(Oc2cc(C(F)(F)F)nc(N3CCc4nc[nH]c4C3)n2)c1 [Example 36]
Result: 6.01

Problem: Next up: NCC1(O)CCN(c2cc(Oc3cccc(F)c3)cc(F)c2F)CC1 [Example 18]
Result: 7.51

Next:
Problem: Would you kindly share the measured pIC50 NET for CC(C)OCC(=O)NCC1(O)CCN(c2nc(Oc3cccc(F)c3)cc(C(F)(F)F)n2)CC1 [Example 23] ?
Result: 5.55

Problem: How about NCC1(F)CCN(c2nc(Oc3cccc(F)c3)cc(C(F)(F)F)n2)CC1 [Example 13] ?
Result: 6.40

Problem: How about this compound: CC(C)C(=O)NCC1(O)CCN(c2nc(Oc3cccc(F)c3)cc(C(F)(F)F)n2)C1 (stereo not drawn) [Example 34]
Result: 4.72

Problem: Could you do the same for O=C(NCC1(O)CCN(c2nc(Oc3cccc(F)c3)cc(C(F)(F)F)n2)C1)C1CNC1 (stereo not drawn) [Example 35] , please?
Result: 6.56

Problem: Param item: NCC1(O)CCN(c2cc(F)cc(Oc3cccc(F)c3)c2)CC1 [Example 14]
Result: 6.93
